test: Pharmacokinetics of c[wLwReQeR] via different routes of administration; format: in vivo, mice; settings: male, mouse, plasma, ip; 16-mg/kg i.p., BALB/c mice; read-out: peak plasma concentration
Where a SMILES comes first, the peptide text is derived from it. [ ]: non-standard residue; d: D form.
reported-metric: Cmax (µM)
Give bare numbers, in µM.

Recorded Cmax of CC(C)C[C@@H]1NC(=O)[C@@H](Cc2c[nH]c3ccccc23)NC(=O)[C@H](CCCNC(=N)N)NC(=O)[C@@H](CCC(=O)O)NC(=O)[C@H](CCC(N)=O)NC(=O)[C@@H](CCC(=O)O)NC(=O)[C@H](CCCNC(=N)N)NC(=O)[C@@H](Cc2c[nH]c3ccccc23)NC1=O [c[wLwReQeR]] (cyclo([dW]L[dW]R[dE]Q[dE]R)) , please.
13

---

test: Pharmacokinetics of c[wLwReQeR] via different routes of administration; format: in vivo, mice; settings: male, C57BL/6, mouse, plasma; oral gavage, 15 mg/kg, C57B1/6
Where a SMILES comes first, the peptide text is derived from it. [ ]: non-standard residue; d: D form.
reported-metric: Tmax

Find the recorded Tmax belonging to CC(C)C[C@@H]1NC(=O)[C@@H](Cc2c[nH]c3ccccc23)NC(=O)[C@H](CCCNC(=N)N)NC(=O)[C@@H](CCC(=O)O)NC(=O)[C@H](CCC(N)=O)NC(=O)[C@@H](CCC(=O)O)NC(=O)[C@H](CCCNC(=N)N)NC(=O)[C@@H](Cc2c[nH]c3ccccc23)NC1=O [c[wLwReQeR]] (cyclo([dW]L[dW]R[dE]Q[dE]R)) and report it.
< 3 h

meta.source: patent US20220040255A1
